system: Escherichia coli isolated from the uterus of postpartum Holstein dairy cows (57 isolates); assay: Kinetic (spectrophotometric) MIC and growth curve test with antimicrobials; type: cell-based; conditions: growth curve during 10 hours at 37° C., Mueller-Hinton broth
# Mean OD600 per record follows
Just the number, please, no unit after it.

Example entries begin here.
{"COMPOUND": "O=C(N[C@H](CO)[C@H](O)c1ccc([N+](=O)[O-])cc1)C(Cl)Cl [Chloramphenicol, chloramphenicol]", "ASSAY VALUE": 0.18}
{"COMPOUND": "CO/N=C(\\C(=O)N[C@@H]1C(=O)N2C(C(=O)O)=C(CSC(=O)c3ccco3)CS[C@H]12)c1csc(N)n1 [Ceftiofur, ceftiofur]", "ASSAY VALUE": 0.05}
{"COMPOUND": "CS(=O)(=O)c1ccc([C@@H](O)[C@@H](CF)NC(=O)C(Cl)Cl)cc1 [Florfenicol, florfenicol]", "ASSAY VALUE": 0.10}
{"COMPOUND": "CC1(C)S[C@@H]2[C@H](NC(=O)[C@H](N)c3ccccc3)C(=O)N2[C@H]1C(=O)O [Ampicillin, ampicillin]", "ASSAY VALUE": 0.14}
{"COMPOUND": "[H]/N=C(/N)N[C@H]1[C@H](O)[C@@H](O)[C@H](O[C@@H]2O[C@@H](C)[C@](O)(C=O)[C@H]2O[C@@H]2O[C@@H](CO)[C@H](O)[C@@H](O)[C@@H]2NC)[C@@H](N/C(N)=N\\[H])[C@@H]1O [Streptomycin, streptomycin]", "ASSAY VALUE": 0.11}
{"COMPOUND": "CN[C@@H]1[C@H](O)[C@H](NC)[C@H]2O[C@@]3(O)C(=O)C[C@@H](C)O[C@H]3O[C@@H]2[C@H]1O [Spectinomycin, spectinomycin]", "ASSAY VALUE": 0.17}

Here's the next entry for you.
Input: Lab note: need Mean OD600 for CN(C)[C@@H]1C(O)=C(C(N)=O)C(=O)[C@@]2(O)C(O)=C3C(=O)c4c(O)cccc4[C@@](C)(O)[C@H]3C[C@@H]12 [Tetracycline, tetracycline] on Escherichia coli isolated from the uterus of postpartum Holstein dairy cows (57 isolates), anyone have it?
Output: 0.05

// provenance: patent US9669060B2
